Experiment: Acid dissociation constant, pKa1 of the compound by UV absorption spectra analysis or potentiometric titration technique
Format: physicochemical
Endpoint name: pKa

For "O=P(O)(O)c1ccc(C(F)(F)F)cc1" the molecule record lists pKa as < 2

---

Assay: physchem
Conditions: octanol/water, pH 11
Description: Octanol/water partition coefficient, log D of the compound at pH 11
Endpoint name: logD
No unit in the answer, only the number.

Some solved entries appear below for comparison.
[[record]]
molecule = "CN=S(C)(=O)c1ccc(C(F)(F)F)cc1 (stereo not given)"
observed = 1.7

[[record]]
molecule = "CNC(=O)c1ccc(C(F)(F)F)cc1"
observed = 1.6

[[record]]
molecule = "CC1(C)COP(=O)(c2ccc(C(F)(F)F)cc2)OC1"
observed = 2.6


For O=S1(c2ccc(C(F)(F)F)cc2)=NCCCC1 (stereo not given) the molecule record lists logD as 1.8

For "CNC(=O)c1ccc(C(=O)Nc2ccc(C)c(Nc3nccc(-c4cccnc4)n3)c2)cc1" the molecule record lists logD as 1.7

For "CCOP(=O)(O)c1ccc(C(F)(F)F)cc1" the molecule record lists logD as -0.8

For "CCOP(=O)(OCC)c1ccc(C(F)(F)F)cc1" the molecule record lists logD as 3.2

For "O=P1(c2ccc(C(F)(F)F)cc2)OCCCO1" the molecule record lists logD as 1.5

For "CC(C)OP(=O)(OC(C)C)c1ccc(C(F)(F)F)cc1" the molecule record lists logD as 4.2

For CNS(=N)(=O)c1ccc(C(F)(F)F)cc1 (stereo not given) the molecule record lists logD as 1
